Origin of values: ChEMBL document CHEMBL1201862

# Tested on: SW-620
# Assay info: NCI tumour cell line growth inhibition, 48 h
Calls of active or inactive are those of the source. Rule as the data show it: active = GI50 up to about 1.1 µM and inactive = higher.
compounds and their reported GI50

// known answers, use as guide
Asked: State its GI50: `CC(C)(C)OC(=O)CN1CCN(CC(=O)N2CCN(C(=O)OCc3ccccc3)CC2)CCN(CC(=O)OC(C)(C)C)CCN(CC(=O)N2CCN(C(=O)OCc3ccccc3)CC2)CC1`
Given back: 1.67 µM (inactive)

Asked: Please give measured GI50 of the following entry: CCCCCC1C2C(=O)NC(=O)C1C(=O)NC2=O (stereo not drawn)
Given back: > 100 µM (inactive)

Asked: Output GI50 of O=C1c2ccc(O)cc2OC(c2cc(O)c(O)c(O)c2)C1O (stereo not drawn) [DIHYDROBINETIN]
Given back: 25 µM (inactive)

Asked: Please give measured GI50 of the following entry: `COc1ccccc1Nc1nc(NNC(=O)Cc2ccccc2)nc(NNC(=O)c2ccncc2)n1`
Given back: > 10 µM (inactive)

Asked: Find the measured GI50 of `CC(C)[Si](OC1=C(C(=O)N(C)c2ccccc2Cl)CCCC1)(C(C)C)C(C)C` and report it.
Given back: 15.2 µM (inactive)

Next:
Asked: Report GI50, nothing else, for this compound: `CC[C@@H](C)[C@H](NC(=O)[C@H](Cc1ccccc1)NCC(F)(F)F)C(=O)OC(C)(C)C`
Given back: > 100 µM (inactive)

Asked: Write down GI50 measured for item NC(=O)NCCCC(NC(=O)OCCCCCCn1ccc(=O)[nH]c1=O)C(=O)O (stereo not drawn)
Given back: > 100 µM (inactive)

Asked: Let me know recorded GI50 for `CCCCC#COP(=O)(OCC)OCC` , thanks.
Given back: > 100 µM (inactive)

Asked: Return reported GI50. Input compound: O=C(c1ccc(Cl)cc1)C1OC12C(=O)Nc1c(Cl)cc(Cl)cc12 (stereo not drawn)
Given back: 40 µM (inactive)

Asked: Note GI50 for the compound shown: Cc1ccc(C)n1-c1ccccc1C1C=Cn2c(=O)oc3c(OC(C)C)c(OC(C)C)c(O)c1c32 (stereo not drawn)
Given back: 11.4 µM (inactive)

Asked: Return reported GI50. Input compound: `CC(C)(C)OC(=O)NCCc1ccc(N)cc1`
Given back: > 100 µM (inactive)

Asked: Query GI50 for `CCOc1ccc2c(c1)/C(=C(\C(Cl)=C(Cl)Cl)[N+](=O)[O-])N2`
Given back: > 100 µM (inactive)

Asked: Answer with the recorded GI50 for the compound listed here: `COc1ccc2c(c1)[n+]([O-])c(C(=O)CC(=O)C(=O)Nc1cccc(Cl)c1C)c(C)[n+]2[O-]`
Given back: 68.9 µM (inactive)

Asked: Dear colleague, please send me the reported GI50 for COc1ccc2c(c1)NC1(O)c3ccccc3C(=O)C21O (stereo not drawn) when you can.
Given back: > 100 µM (inactive)

Asked: Supply recorded GI50 for `O=C1Nc2ccccc2/C1=C1/Nc2ccccc2/C1=N/OCCOCCO` here.
Given back: 1.82 µM (inactive)

Asked: Identify GI50 associated with the compound CCC1=CCC23C(=O)C=CC(=O)C2(C1)C(=O)c1cccc(OC)c1C3=O (stereo not drawn)
Given back: 15.5 µM (inactive)

Asked: Fill in GI50 for record COc1ccc(-c2cc(=O)c3c(O)c(OC)c(OC)c(OC)c3o2)cc1OC [5-DEMETHYLNOBILETIN]
Given back: > 10 µM (inactive)

Asked: Give GI50 for `O=C1[C@@H]2C(c3ccccc3[N+](=O)[O-])=[N+](c3ccccc3)O[C@@H]2C(=O)N1c1ccc(Cc2ccc(N3C(=O)[C@H]4C(c5ccccc5[N+](=O)[O-])=[N+](c5ccccc5)O[C@H]4C3=O)cc2)cc1`
Given back: > 100 µM (inactive)
